Source: a melting point compilation (Tetko et al.)

READOUT: melting point

Prompt line: Given the entry `COCCn1nc(C(=O)O)ccc1=O` , report its measured melting point.
Response line: 156 to 158 °C

Prompt line: Request: `NNc1nc2cc(F)c(F)cc2[nH]1`
Response line: 221 to 223 °C

Prompt line: Try `CC1=NN(c2nc(C)cc(C)n2)C(=O)C1` next.
Response line: 109 to 111 °C

Prompt line: What do you get for `COc1ccc(N)cc1NC(=O)C1CCCCC1` ?
Response line: 147 to 149 °C

---

READOUT: melting point

{"MOLECULE": "CCS(=O)(=O)c1ccc2c(c1)N(CC(=O)O)CC(=O)O2", "melting point": "188 to 190 °C"}

Please find the next molecule below.
Prompt line: Consider the molecule `NNc1ccc(S(=O)(=O)NC2CC2)cc1` and give its measured melting point.
Response line: 134 to 136 °C
